# Tested on: K-562 leukemia
# method: NCI-60 one-dose screen, 48 h
# condition description: 10 µM unless noted
Compounds without any hit were thinned out: in the full panel of roughly 83,000, 20% have a hit. Active and inactive are the calls of the source. Rule for the calls: active = growth percent below 10; inactive = the rest.
// classify into y = active, n = inactive

Hi team, can someone confirm the assay call for `COc1cccc(CCC2C(=O)CCCC2=O)c1` ?
n

---

# Tested on: SN12C renal
# method: NCI-60 one-dose screen, 48 h (100 = growth as untreated, 0 = no growth, -100 = all killed)
# condition description: 10 µM unless noted
The panel holds about 83,000 compounds, 20% with a hit somewhere; the sample as a whole holds those more often.
Define the label as True when growth is strictly less than 50% and as False in all remaining cases.

Worked examples, 5 compounds total:
| compound | system under test | group |
| --- | --- | --- |
| Cn1cc(-c2csc(-c3c[nH]c4ncccc34)n2)c2cc(F)cnc21 | SN12C renal | False |
| COc1ccc(-c2cnnn2-c2cc(OC)c3c(c2)OCO3)cc1 | SN12C renal | True |
| COc1ccc(C2=NNC(c3cc(Cc4ccc(O)c(C5CC(c6ccc(OC)cc6)=NN5)c4)ccc3O)C2)cc1 (configuration not stated) | SN12C renal | False |
| O=C(/C=C/c1cc2ccccc2[nH]c1=O)c1ccc(O)cc1 | SN12C renal | True |
| O=c1ccn(C2CCCO2)c(=O)[nH]1 (configuration not stated) | SN12C renal | False |

I'd appreciate it if you could check whether C=C(C)[C@H]1CC/C(C)=C/CC[C@]2(C)O[C@H]2CC/C(C=O)=C\C1O (some centres not stated) has growth smaller than 50%.
False

I'd appreciate it if you could check whether `CC(=O)c1ccc2c3c(n(C)c2c1)CCCC3` has growth smaller than 50%.
False

---

# System: MDA-MB-435 melanoma
# method: NCI-60 one-dose screen, 48 h (100 = growth as untreated, 0 = no growth, -100 = all killed)
# condition description: 10 µM unless noted
The panel holds about 83,000 compounds, 20% with a hit somewhere; the sample as a whole holds those more often.
quantity: growth (%)
// units = %; emit number, no label

Some entries whose results are on file:
| molecule | quantity unit | growth |
| --- | --- | --- |
| c1ccc(-c2nn[nH]n2)c(-c2ccc(CN3CCN(c4nsc5ccccc45)CC3)cc2)c1 | % | 92.2 |
| NCCCc1nnc(CCC(=O)c2nc3ccccc3[nH]2)o1 | % | 105 |
| CCC(C)CC(C)C(=O)c1c(O)ccn(O)c1=O (centres undefined) | % | 46.8 |

With those in mind, consider the next molecule.
Supply measured growth of `COC(=O)[C@]12CC[C@@H](C)[C@H](C)[C@@H]1C1=CC[C@@H]3[C@@]4(C)C=C(O)C(=O)[C@@]5(C)COC(=C54)C[C@@]3(C)[C@]1(C)CC2` in your reply.
-60.9

---

# Test system: HCT-116 colon
# method: NCI-60 one-dose screen, 48 h (100 = growth as untreated, 0 = no growth, -100 = all killed)
# condition description: 10 µM unless noted
This is part of a sample that, as a whole, favours compounds with a hit. Of some 83,000 tested, about 20% had one in any assay. Activity calls are given as the source filed them. Rule for the calls: active = growth percent below 10; inactive = the rest.
quantity: growth

Some entries whose results are on file:
| compound | quantity | observed |
| --- | --- | --- |
| CCOC(=O)C(C(C)=O)c1nc2sc3cc(Cl)ccc3n2c(=N)c1C#N (stereo not given) | growth | 103% (inactive) |
| O=C(Nc1cccc(C(F)(F)F)c1)Nc1ccc(OCc2nnc(-c3ccc(Cl)cc3)o2)c(F)c1 | growth | 37.1% (inactive) |
| CCOC(=O)C1=C(COCCN)NC(C)=C(C(=O)OC)C1c1ccccc1Cl (stereo not given) | growth | 45.9% (inactive) |
| COc1cc(/C=C/c2nnc(-c3cc(-c4ccccc4)n[nH]3)o2)cc(OC)c1OC | growth | 119% (inactive) |
| O=C1Nc2ccc(F)cc2/C1=C/c1nc(-c2ccc(F)cc2)n2ccccc12 | growth | 91.1% (inactive) |
| CC(=O)O[C@H]1C(=O)[C@@]2(C)C([C@H](OC(=O)c3ccccc3)[C@]3(O)C[C@H](OC(=O)[C@H](O)[C@@H](NC(=O)c4ccccc4)c4ccccc4)C(C)=C1C3(C)C)[C@]1(OC(C)=O)CO[C@@H]1C[C@@H]2O (stereo not given in full) | growth | 7.81% (active) |
| c1coc([C@@H]2C[C@@H]3Cc4ccc5ccccc5c4N2O3)c1 | growth | 99.2% (inactive) |
| COc1ccc(C(=O)/C=C/c2c(Cl)nc3c(c(C)nn3-c3ccccc3)c2-c2ccc(Br)cc2)cc1 | growth | 102% (inactive) |
| COc1ncc(-c2ccc3nccc(C#CCN4CCN(S(C)(=O)=O)CC4)c3c2)cc1NS(=O)(=O)c1ccc(F)cc1F | growth | -10.4% (active) |

Tell me growth of `N#CCCCCCn1c2ccccc2c2c3c(c4c5ccccc5[nH]c4c21)C(=O)N(O)C3=O` when tested on HCT-116 colon.
-33.3% (active)

---

# Tested on: UACC-62 melanoma
# method: NCI-60 one-dose screen, 48 h (100 = growth as untreated, 0 = no growth, -100 = all killed)
# condition description: 10 µM unless noted
About 83,000 compounds went through this panel and 20% of them were active in at least one assay; those are over-represented in the sample as a whole.
Quick list: growth per entry.
// units = %; emit number, no label

Some entries whose results are on file:
| compound smiles | quantity unit | growth |
| --- | --- | --- |
| CCOc1ccccc1C(=O)OCC(=O)Nc1cccc(S(=O)(=O)N(C)C)c1 | % | 94.5 |
| Cc1c(NCc2nnc3n(Cc4ccccc4)c(=O)c4c5c(sc4n23)CCCC5)c(=O)n(-c2ccccc2)n1C | % | 80 |

Tell me growth of `CCOc1nc(-c2ccccc2)cc2c(O)c(-c3nnco3)[nH]c(=O)c12` when tested on UACC-62 melanoma.
56.9

---

# System: EKVX NSCLC
# method: NCI-60 one-dose screen, 48 h (100 = growth as untreated, 0 = no growth, -100 = all killed)
# condition description: 10 µM unless noted
# Procedure: Growth inhibition of the EKVX human Non-Small Cell Lung tumor cell line is measured as a screen for anti-cancer activity. Cells are grown in 96 well plates and exposed to the test compound for 48 hours. Compounds are tested at a single concentration, which is 10^-5 M for most compounds. The reported endpoint is percent growth (GI% or GIPRCNT), where numbers from 0 - 100% represent growth inhibition, and numbers from -100% - 0 represent cell death. […]
This is part of a sample that, as a whole, favours compounds with a hit. Of some 83,000 tested, about 20% had one in any assay.
quantity: growth (%)
// units = %; emit number, no label

Some entries whose results are on file:
| molecule | quantity unit | observed |
| --- | --- | --- |
| CCCOc1ccc2c(c1)CC[C@@H]1[C@@H]2CC[C@@]2(C)[C@H]1CC[C@]2(C)O | % | 80 |
| O=[N+]([O-])c1ccc(Oc2cccc(C(F)(F)F)c2)c([N+](=O)[O-])c1 | % | 111 |

Supply measured growth of `O=C(NN(C(=O)c1ccccc1)c1cccs1)c1ccccc1` in your reply.
112

Supply measured growth of `COc1ncc(-c2ccc3nccc(C#CCN4CCN(S(C)(=O)=O)CC4)c3c2)cc1NS(=O)(=O)c1ccc(F)cc1F` in your reply.
9.26

Supply measured growth of `Cc1nn(-c2ccccc2)c2ncc3c(c12)C(=O)N(Cc1ccccc1)C3=O` in your reply.
37.3

Supply measured growth of `Cc1nc2cc(NC(=O)CN3CCN(CCN4C(=O)c5cccc6cccc(c56)C4=O)CC3)ccc2s1` in your reply.
69.9

Supply measured growth of `C=C(C)[C@@H]1C/C=C(/C=O)CC[C@@H]2O[C@@]2(C)CC/C=C(\C)CC1` in your reply.
69.8

Supply measured growth of `Cc1cccc(Cl)c1NC(=O)c1ccc2nc(NC(=O)NC3CC(C)(C)NC(C)(C)C3)sc2c1` in your reply.
94.5

---

Quick list: growth per entry.
# Test system: M14 melanoma
# method: NCI-60 one-dose screen, 48 h (100 = growth as untreated, 0 = no growth, -100 = all killed)
# condition description: 10 µM unless noted
About 83,000 compounds went through this panel and 20% of them were active in at least one assay; those are over-represented in the sample as a whole.
// units = %; emit number, no label

| molecule | system under test | observed |
| --- | --- | --- |
| Cn1c(N)c(N=O)c(=O)[nH]c1=O | M14 melanoma | 97.9 |
| Fc1ccc(-c2nnc(-c3c(-c4ccc(F)cc4)nc4ncccn34)o2)cc1 | M14 melanoma | 112 |
| CCCCCCCC1(C)NC(=O)NC1=O (configuration not stated) | M14 melanoma | 106 |

Supply measured growth of `Cc1c(NCc2nnc3n(Cc4ccccc4)c(=O)c4c5c(sc4n23)CCCC5)c(=O)n(-c2ccccc2)n1C` in your reply.
83.2

Supply measured growth of `Nc1nc(SCc2ccccc2Cl)c(-c2ccccc2)c(SCc2ccccc2Cl)n1` in your reply.
95.3

Supply measured growth of `c1ccc(-n2nnnc2-c2cccc3ccccc23)cc1` in your reply.
8.41

Supply measured growth of C[C@@H]1CC[C@H]2[C@@H](C)C(O)O[C@@H]3O[C@]4(C)CC[C@@H]1[C@]32OO4 (some centres not stated) in your reply.
29.8

Supply measured growth of `Cc1cc(C)c(OC(=O)CSc2nc3ccccc3c(=O)n2CCc2ccccc2)cc1C` in your reply.
102
